Each item that follows carries a reported pIC50.
target or test system: WRN [UniPro: Q14191 (WRN_HUMAN), N500-C946] (Homo sapiens (Human), UniProt Q14191)
Sequence (Q14191 500-946): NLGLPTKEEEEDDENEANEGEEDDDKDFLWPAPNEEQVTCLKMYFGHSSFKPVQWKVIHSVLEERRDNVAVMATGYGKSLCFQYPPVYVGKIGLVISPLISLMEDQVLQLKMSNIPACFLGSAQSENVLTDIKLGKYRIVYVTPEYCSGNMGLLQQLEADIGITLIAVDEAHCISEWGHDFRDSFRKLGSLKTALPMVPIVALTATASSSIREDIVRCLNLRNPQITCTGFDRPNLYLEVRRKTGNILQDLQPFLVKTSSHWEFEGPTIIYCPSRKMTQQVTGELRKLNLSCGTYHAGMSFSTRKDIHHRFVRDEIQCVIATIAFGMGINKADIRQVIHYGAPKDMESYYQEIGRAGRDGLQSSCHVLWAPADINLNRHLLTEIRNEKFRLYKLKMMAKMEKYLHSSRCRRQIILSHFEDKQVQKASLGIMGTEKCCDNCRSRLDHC
assay info: WRN unwinding assay (FORKF DNA, fluorescence)
Assay type: biochemical
protocol conditions: Table 14
pIC50: −log10 of the molar value.

Specify pIC50 for CCc1c(N2CCN(C(=O)c3ccn4nccc4c3O)CC2)c(=O)n2nc(C3=CCOCC3)nc2n1CC(=O)Nc1ccc(C(F)(F)F)cc1Cl [Example 200] and stop.
> 7.00

Specify pIC50 for CCc1c(N2CCN(C(=O)CNC(=O)c3cc(O)ccc3F)CC2)c(=O)n2nc(C3=CCOCC3)nc2n1CC(=O)Nc1ccc(C(F)(F)F)cc1Cl [Example 290] and stop.
> 7.00

Specify pIC50 for CCc1c(N2CCN(C(=O)C(=O)Nc3nccs3)CC2)c(=O)n2nc(N3CCN4C(=O)OC[C@H]4C3)nc2n1CC(=O)Nc1ccc(C(F)(F)F)cc1F [Example 264] and stop.
> 7.00
